- experimental-system: T1, wild-type human PTH/PTHrP receptor (hP1R-WT) (human, UniProt Q03431 27-593)
- T1 sequence (looked up): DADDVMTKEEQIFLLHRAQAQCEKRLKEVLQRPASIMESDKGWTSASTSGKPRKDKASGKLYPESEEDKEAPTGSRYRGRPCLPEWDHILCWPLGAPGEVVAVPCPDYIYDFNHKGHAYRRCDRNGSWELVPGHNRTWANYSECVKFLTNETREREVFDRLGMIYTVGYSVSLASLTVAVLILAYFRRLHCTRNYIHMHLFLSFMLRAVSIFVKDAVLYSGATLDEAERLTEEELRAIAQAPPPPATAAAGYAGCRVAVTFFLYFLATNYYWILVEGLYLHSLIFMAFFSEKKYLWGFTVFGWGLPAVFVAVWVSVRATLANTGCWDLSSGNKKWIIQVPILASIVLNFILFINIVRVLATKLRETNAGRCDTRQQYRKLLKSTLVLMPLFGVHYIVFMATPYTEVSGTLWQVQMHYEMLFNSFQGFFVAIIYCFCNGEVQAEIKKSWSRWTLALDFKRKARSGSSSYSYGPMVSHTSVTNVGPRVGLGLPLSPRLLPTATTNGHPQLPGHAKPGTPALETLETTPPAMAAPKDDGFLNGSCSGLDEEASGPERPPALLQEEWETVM
- test-details: cell-based or functional assay
Square brackets hold non-standard residues; d marks the D form. Ends that are not written are not given here. hArg = N=C(N)NCCCC[C@H](N)C(=O)O; Aib = CC(C)(N)C(=O)O
measured-property: cAMP EC50 (µM)
# unit: µM | format: bare number

Solved entries (count: 2):
{"columns": ["binder", "value-unit", "cAMP EC50"],
 "data": [
  ["AVAEIQ[Aib]MHQ[hArg]AKW-NH2 (N-terminus assumed; SMILES CC[C@H](C)[C@H](NC(=O)[C@H](CCC(=O)O)NC(=O)[C@H](C)NC(=O)[C@@H](NC(=O)[C@H](C)N)C(C)C)C(=O)N[C@@H](CCC(N)=O)C(=O)NC(C)(C)C(=O)N[C@@H](CCSC)C(=O)N[C@@H](Cc1c[nH]cn1)C(=O)N[C@@H](CCC(N)=O)C(=O)N[C@@H](CCCCNC(=N)N)C(=O)N[C@@H](C)C(=O)N[C@@H](CCCCN)C(=O)N[C@@H](Cc1c[nH]c2ccccc12)C(N)=O, Aib scan of [M]PTH(1-14); also called 628 Aib-7) [[Aib^7,M]PTH(1-14)]", "µM", 2.6],
  ["AVAEI[Aib]LMHQ[hArg]AKW-NH2 (N-terminus assumed; SMILES CC[C@H](C)[C@H](NC(=O)[C@H](CCC(=O)O)NC(=O)[C@H](C)NC(=O)[C@@H](NC(=O)[C@H](C)N)C(C)C)C(=O)NC(C)(C)C(=O)N[C@@H](CC(C)C)C(=O)N[C@@H](CCSC)C(=O)N[C@@H](Cc1c[nH]cn1)C(=O)N[C@@H](CCC(N)=O)C(=O)N[C@@H](CCCCNC(=N)N)C(=O)N[C@@H](C)C(=O)N[C@@H](CCCCN)C(=O)N[C@@H](Cc1c[nH]c2ccccc12)C(N)=O, Aib scan of [M]PTH(1-14); also called 627 Aib-6) [[Aib^6,M]PTH(1-14)]", "µM", 230]
]}

Then this binder:
What measured cAMP EC50 goes with AVA[Aib]IQLMHQ[hArg]AKW-NH2 (N-terminus assumed; SMILES CC[C@H](C)[C@H](NC(=O)C(C)(C)NC(=O)[C@H](C)NC(=O)[C@@H](NC(=O)[C@H](C)N)C(C)C)C(=O)N[C@@H](CCC(N)=O)C(=O)N[C@@H](CC(C)C)C(=O)N[C@@H](CCSC)C(=O)N[C@@H](Cc1c[nH]cn1)C(=O)N[C@@H](CCC(N)=O)C(=O)N[C@@H](CCCCNC(=N)N)C(=O)N[C@@H](C)C(=O)N[C@@H](CCCCN)C(=O)N[C@@H](Cc1c[nH]c2ccccc12)C(N)=O, Aib scan of [M]PTH(1-14); also called 625 Aib-4) [[Aib^4,M]PTH(1-14)] ?
17
